target: Vacuolar aminopeptidase 1 (Saccharomyces cerevisiae (strain ATCC 204508 / S288c)) (UniProt P14904); assay: yeast TOR reporter LAP4 modulators, analogs – cell-based, KU SAR set, flow cytometry, SAR follow-up (AID 488795); settings: S. cerevisiae Lap4-GFP reporter, flow cytometry MCF
Sequence (P14904 whole entry, looked up): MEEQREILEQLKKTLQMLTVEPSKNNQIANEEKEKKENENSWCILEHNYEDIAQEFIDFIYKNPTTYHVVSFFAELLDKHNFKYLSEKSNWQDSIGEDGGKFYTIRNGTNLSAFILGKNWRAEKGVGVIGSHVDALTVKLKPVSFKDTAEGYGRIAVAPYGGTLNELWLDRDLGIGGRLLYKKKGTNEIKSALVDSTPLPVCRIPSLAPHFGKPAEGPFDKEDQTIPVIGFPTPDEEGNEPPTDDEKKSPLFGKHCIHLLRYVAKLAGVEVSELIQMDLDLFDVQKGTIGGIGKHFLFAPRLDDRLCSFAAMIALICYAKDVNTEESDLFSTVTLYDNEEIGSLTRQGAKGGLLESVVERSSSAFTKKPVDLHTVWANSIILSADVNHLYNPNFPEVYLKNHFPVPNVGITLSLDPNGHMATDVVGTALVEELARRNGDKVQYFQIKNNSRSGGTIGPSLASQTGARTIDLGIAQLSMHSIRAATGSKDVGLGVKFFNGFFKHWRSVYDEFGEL
Calls of active or inactive are those of the source. How the calls were made is not given here.
Bench note: report the call from label 1 for active, label 0 for inactive

Would you please look over these solved cases?
COMPOUND	CLASS ASSIGNMENT
CCC(C)Nc1nc(N)c([N+](=O)[O-])c(Nc2cccc(F)c2)n1 (centres undefined)	label 0
CCOC(=O)CS(=O)(=O)c1nc(-c2ccccc2)cc(C(F)(F)F)n1	label 1
CC(C)(C)C(=O)C(Cl)C(=O)Nc1ccccc1 (centres undefined)	label 1

Data request: What classification did O=c1/c(=C/c2cccc3ccccc23)sc2ncnn12 end up with in this test?
Data returned: label 1

Data request: What classification did Cc1ccc(S(=O)(=O)c2ncccc2[N+](=O)[O-])cc1 end up with in this test?
Data returned: label 0

Data request: What classification did CSC1=NS(=O)(=O)c2c(C)nn(C)c2S1 end up with in this test?
Data returned: label 0

Data request: What classification did CCOC(=O)CSC1=NC(=O)/C(=C\c2ccc(Cl)cc2)S1 end up with in this test?
Data returned: label 0

Data request: What classification did Nc1cc(Oc2cccc(Cl)c2)nc(NCc2ccccc2)n1 end up with in this test?
Data returned: label 0

Data request: What classification did CCN(CC)C(=O)Oc1ccnc2cc(Cl)ccc12 end up with in this test?
Data returned: label 0

Data request: What classification did O=C(Nc1nc(-c2ccccn2)cs1)C1COc2ccccc2O1 (centres undefined) end up with in this test?
Data returned: label 0

Data request: What classification did COC(=O)CCS(=O)(=O)c1nc(-c2ccccc2)cc(C(F)(F)F)n1 end up with in this test?
Data returned: label 1
